Target: Dipeptidyl peptidase 4 (Homo sapiens)
Sequence (P27487 whole entry): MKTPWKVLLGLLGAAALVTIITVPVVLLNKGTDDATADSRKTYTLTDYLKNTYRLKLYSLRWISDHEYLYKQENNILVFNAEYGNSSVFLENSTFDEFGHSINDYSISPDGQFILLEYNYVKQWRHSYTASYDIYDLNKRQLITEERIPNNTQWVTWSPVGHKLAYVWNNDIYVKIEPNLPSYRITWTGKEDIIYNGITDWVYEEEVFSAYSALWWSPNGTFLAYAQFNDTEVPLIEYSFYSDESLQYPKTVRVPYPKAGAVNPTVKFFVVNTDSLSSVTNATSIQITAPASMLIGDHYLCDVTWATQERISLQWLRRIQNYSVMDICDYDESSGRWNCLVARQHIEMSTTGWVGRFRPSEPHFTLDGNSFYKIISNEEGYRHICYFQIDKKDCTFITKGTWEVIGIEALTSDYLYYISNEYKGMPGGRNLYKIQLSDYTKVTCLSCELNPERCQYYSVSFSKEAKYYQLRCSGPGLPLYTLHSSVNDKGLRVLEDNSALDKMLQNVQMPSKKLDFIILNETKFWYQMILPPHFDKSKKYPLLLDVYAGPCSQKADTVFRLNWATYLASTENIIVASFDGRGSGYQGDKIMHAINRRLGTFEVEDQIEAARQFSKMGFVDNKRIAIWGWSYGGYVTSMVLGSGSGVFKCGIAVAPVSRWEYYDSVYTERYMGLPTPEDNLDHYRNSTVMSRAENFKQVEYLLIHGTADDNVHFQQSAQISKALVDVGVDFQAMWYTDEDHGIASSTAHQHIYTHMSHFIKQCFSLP
Measure name: IC50 (nM)
Numbers only, in nM.

Exercise: Complete the entry with IC50 for NCc1c(N)nc(-c2cc(F)cc(F)c2)nc1-c1ccc(Cl)cc1Cl
Key: 3

The reported measurements were obtained from ChEMBL document CHEMBL1909529.
